- assay_overview: Inhibitory concentration against Human Jurkat leukemia (JLC) cell proliferation
- Format: functional
measured_metric: pIC50
Remember, pIC50 is on a log scale: it is -log10 of the molar concentration.

Examples from the recorded data:
{"compound": "COc1cc(NS(C)(=O)=O)ccc1Nc1c2ccccc2nc2ccccc12", "value_measured": 7.43}
{"compound": "CN(C)CCNC(=O)c1cccc2c(C(=O)NCCN(C)C)c3sc4ccccc4c3nc12", "value_measured": 7.47}
{"compound": "CN(C)CCNC(=O)c1cccc2nc3c(nc12)oc1ccccc13", "value_measured": 5.59}
{"compound": "CN(C)CCNC(=O)c1cc(Cl)cc2nc3c(nc12)oc1ccccc13", "value_measured": 5.82}
{"compound": "CN(C)CCNC(=O)c1cccc2cc3c(nc12)-c1ccccc1C3", "value_measured": 6.49}
{"compound": "CC[C@@]1(O)C(=O)OCc2c1cc1n(c2=O)Cc2cc3ccccc3nc2-1", "value_measured": 8.25}
{"compound": "CN(C)CCNC(=O)c1cc(Cl)cc2[nH]c3nc4ccccc4c-3nc12", "value_measured": 6.01}
{"compound": "CN(C)CCNC(=O)c1cccc2cc3ccccc3nc12", "value_measured": 6.24}

Return reported pIC50; argument: CN(C)CCNC(=O)c1cccc2[nH]c3c4ccccc4nc-3nc12 5.85

Endpoint output: pIC50 of CN(C)CCNC(=O)c1cccc2nc3c(nc12)-c1ccccc1C3 . Value? 6.26

Requested read-out: pIC50. Entry: CN(C)CCNC(=O)c1cccc2cc3oc4ccccc4c3nc12 6.37

// returns reported pIC50 for input CN(C)CCNC(=O)c1cc(Cl)cc2[nH]c3c4ccccc4nc-3nc12 6.52

Given the compound COc1cccc2c1C(=O)c1c(O)c3c(c(O)c1C2=O)C[C@@](O)(C(=O)CO)C[C@@H]3O[C@H]1C[C@H](N)[C@H](O)[C@H](C)O1 , what is its reported pIC50? 8.02

Which pIC50 is reported for this compound? CN(C)CCNC(=O)c1cccc2nc3c(nc12)-c1ccccc1C3=O 5.96

Given CN(C)CCNC(=O)c1cccc2nc3sc4ccccc4c3nc12 , state its recorded pIC50. 6.82

Data request, read-out pIC50, for CN(C)CCNC(=O)c1cccc2cc3c(nc12)-c1ccccc1C3=O 6.74

Requested field: pIC50. Item: COc1cc([C@@H]2c3cc4c(cc3[C@@H](O[C@@H]3O[C@@H]5CO[C@@H](C)O[C@H]5[C@H](O)[C@H]3O)[C@H]3COC(=O)[C@H]23)OCO4)cc(OC)c1O [ETOPOSIDE] 6.80

# input compound: CN(C)CCNC(=O)c1cccc2cc3c(nc12)C(=O)c1ccccc1-3 ; wanted: its pIC50 6.43

Form field: reported pIC50 of CN(C)CCNC(=O)c1cccc2cc3c(nc12)-c1ccccc1S3(=O)=O 6.07

Field request: pIC50 | item: CN(C)CCNC(=O)c1cccc2cc3sc4ccccc4c3nc12 6.77

Fill blank: measured pIC50 of the compound CN(C)CCNC(=O)c1cccc2cc3[nH]c4ccccc4c3nc12 is ____. 6.35

* * *

- assay_overview: Ratio of inhibitory concentration of Human Jurkat leukemia D (JLD) and Human Jurkat leukemia C (JLC)
- Type: functional
measured_metric: IC50 ratio
Please reply with the number alone, leaving off any unit.

{"compound": "CN(C)CCNC(=O)c1cccc2[nH]c3c4ccccc4nc-3nc12", "IC50 ratio": 1}

Please look up its IC50 ratio: CN(C)CCNC(=O)c1cccc2cc3c(nc12)C(=O)c1ccccc1-3 0.9

Entry COc1cc([C@@H]2c3cc4c(cc3[C@@H](O[C@@H]3O[C@@H]5CO[C@@H](C)O[C@H]5[C@H](O)[C@H]3O)[C@H]3COC(=O)[C@H]23)OCO4)cc(OC)c1O [ETOPOSIDE] has what IC50 ratio? 90

Suppose we examine the compound CN(C)CCNC(=O)c1cccc2c(C(=O)NCCN(C)C)c3sc4ccccc4c3nc12 ; what IC50 ratio value has been reported? 0.9

* * *

- assay_overview: Inhibitory concentration to reduce cell number to 50% of Murine P388 leukemia cell culture
- Assay type: functional, Mus musculus
Hi! Could you tag entries with IC50 below 400 nM as Satisfied, and those at or above as Not satisfied? Much appreciated.

{"compound": "CN(C)CCNC(=O)c1cccc2[nH]c3c4ccccc4nc-3nc12", "assigned_label": "Not satisfied"}
{"compound": "CN(C)CCNC(=O)c1cccc2cc3[nH]c4ccccc4c3nc12", "assigned_label": "Satisfied"}
{"compound": "CN(C)CCNC(=O)c1cccc2cc3c(nc12)-c1ccccc1C3", "assigned_label": "Satisfied"}
{"compound": "CN(C)CCNC(=O)c1cccc2cc3sc4ccccc4c3nc12", "assigned_label": "Satisfied"}
{"compound": "CN(C)CCNC(=O)c1cc(Cl)cc2nc3c(nc12)oc1ccccc13", "assigned_label": "Not satisfied"}

I'd appreciate it if you could check whether CN(C)CCNC(=O)c1cccc2nc3c(nc12)-c1ccccc1C3 has IC50 smaller than 400 nM. Satisfied

State whether 400 nM exceeds IC50 recorded for CN(C)CCNC(=O)c1cccc2cc3ccccc3nc12 . Satisfied

For COc1cc([C@@H]2c3cc4c(cc3[C@@H](O[C@@H]3O[C@@H]5CO[C@@H](C)O[C@H]5[C@H](O)[C@H]3O)[C@H]3COC(=O)[C@H]23)OCO4)cc(OC)c1O [ETOPOSIDE] , is the recorded IC50 below the cut-off of 400 nM? Satisfied

Take the compound CN(C)CCNC(=O)c1cccc2cc3c(nc12)C(=O)c1ccccc1-3 and say whether its IC50 is less than 400 nM. Satisfied

Lab log: compare recorded IC50 with 400 nM; is it strictly lower for CN(C)CCNC(=O)c1cccc2nc3sc4ccccc4c3nc12 ? Satisfied

# check: IC50 < 400 nM for CN(C)CCNC(=O)c1cccc2c(C(=O)NCCN(C)C)c3sc4ccccc4c3nc12 Satisfied

* * *

- assay_overview: Inhibitory concentration to reduce cell number to 50% of Murine P388 leukemia cell culture
- Assay type: functional, Mus musculus
measured_metric: pIC50
Convention used: pIC50 is expressed as -log10 of the molar concentration.

# example entries with known answers
{"smiles_text": "CN(C)CCNC(=O)c1cccc2nc3c(nc12)oc1ccccc13", "pIC50": 5.66}
{"smiles_text": "COc1cc(NS(C)(=O)=O)ccc1Nc1c2ccccc2nc2ccccc12", "pIC50": 7.70}

Which value of pIC50 has been reported for CN(C)CCNC(=O)c1cccc2cc3oc4ccccc4c3nc12 in the records? 6.77

* * *

Recorded IC50 ratio, one value per entry.
- assay_overview: Ratio of inhibitory concentration of Human Jurkat leukemia D (JLD) and Human Jurkat leukemia C (JLC)
- Type: functional
I only need the number, thanks.

Previously resolved entries follow.
{"compound": "CN(C)CCNC(=O)c1cccc2cc3oc4ccccc4c3nc12", "value_measured": 1.2}
{"compound": "CN(C)CCNC(=O)c1cc(Cl)cc2[nH]c3c4ccccc4nc-3nc12", "value_measured": 1.3}
{"compound": "CN(C)CCNC(=O)c1cccc2cc3c(nc12)-c1ccccc1S3(=O)=O", "value_measured": 4.2}

Given CN(C)CCNC(=O)c1cccc2nc3c(nc12)-c1ccccc1C3=O , state its recorded IC50 ratio. 1.1

# input compound: CN(C)CCNC(=O)c1cccc2cc3sc4ccccc4c3nc12 ; wanted: its IC50 ratio 1.6

# lookup: IC50 ratio of CC[C@@]1(O)C(=O)OCc2c1cc1n(c2=O)Cc2cc3ccccc3nc2-1 [CAMPTOTHECIN] 1.4

What does the data say about its IC50 ratio? Entry: CN(C)CCNC(=O)c1cccc2nc3sc4ccccc4c3nc12 2.7

Request the reported IC50 ratio associated with CN(C)CCNC(=O)c1cccc2cc3c(nc12)-c1ccccc1C3 1.9

* * *

- assay_overview: Ratio of inhibitory concentration of Human Jurkat leukemia D (JLD) and Human Jurkat leukemia C (JLC)
- Format: functional
measured_metric: IC50 ratio
Keep it simple and answer with nothing but the number.

Worked cases, answers included:
{"compound": "COc1cc(NS(C)(=O)=O)ccc1Nc1c2ccccc2nc2ccccc12 [AMSACRINE]", "IC50 ratio": 74}
{"compound": "CN(C)CCNC(=O)c1cccc2cc3c(nc12)-c1ccccc1C3=O", "IC50 ratio": 0.9}

Entry COc1cccc2c1C(=O)c1c(O)c3c(c(O)c1C2=O)C[C@@](O)(C(=O)CO)C[C@@H]3O[C@H]1C[C@H](N)[C@H](O)[C@H](C)O1 [DOXORUBICIN] : reported IC50 ratio = ? 90

Quick one: IC50 ratio for CN(C)CCNC(=O)c1cccc2nc3c(nc12)oc1ccccc13 ? 1

# IC50 ratio lookup, item CN(C)CCNC(=O)c1cccc2cc3[nH]c4ccccc4c3nc12 1.1

Name the recorded IC50 ratio for CN(C)CCNC(=O)c1cc(Cl)cc2[nH]c3nc4ccccc4c-3nc12 . 0.9

Item CN(C)CCNC(=O)c1cccc2nc3c(nc12)-c1ccccc1C3 has what recorded IC50 ratio? 1

Attribution: ChEMBL document CHEMBL1130077
